Cited source for all entries: patent US20080081047A1

assayed_system: SARS-HCoV antigen(s) of unknown identity (purified whole virus, infected Vero cell lysate or infected Vero cells)
experiment: ELISA, OD on native virus against OD on heat-denatured virus

binder: F26G10 (antibody, V domains shown) VH: EVQLEESGTVLARPGASVKMSCKASGYSFTSYWMHWVKQRPGQGLDWIGAIYPENSDTSYNQKFKGKAKLTAVTSASTAYMEHSSLTNEDSAVYYCTRSVYYGYGYFDVWGAGTTVTVSS VL: DILMTQSHKFMSTSVGDRVSITCKASQDVSTAVAWYQQKPGQSPKLLIYWASTRHTGVPDRFTGSGSGTDYTLTISSVQAEDLALYYCQQHYSTPYTFGGGTKLEIKR
O.D. Reduction, Percent: 77%
